This collection of values is drawn from paper PMC8623398.

Tested on: HaCaT cells
test_description: MTT assay, HaCaT normal cells
Assay type: cell-based, human
condition: 72 h
test_readout: IC50 (µM)
Numeric answer only, unit µM assumed.

N.N.[Cl][Pt][Cl] [Cisplatin, reference compound] has a reported IC50 of 6.3

----------
Tested on: SW480 cells
test_description: Trypan blue assay, SW480
Assay type: cell-based, human
condition: SW480, 72 h, compound at IC50 concentration
test_readout: Viability (%)
Numeric answer only, unit % assumed.

`FC(F)(F)c1cccc(NC(=S)Nc2ccc(Cl)cc2)c1` has a reported Viability (%) of 72

`FC(F)(F)c1cccc(NC(S)=Nc2ccc(Cl)cc2Cl)c1` has a reported Viability (%) of 90

`FC(F)(F)c1cccc(NC(=S)Nc2ccc(Cl)c(Cl)c2)c1` has a reported Viability (%) of 45

`FC(F)(F)c1ccc(NC(=S)Nc2cccc(C(F)(F)F)c2)cc1` has a reported Viability (%) of 90

`Fc1ccc(NC(=S)Nc2cccc(C(F)(F)F)c2)cc1Cl` has a reported Viability (%) of 69
